Reference source: patent US20250257064A1

Target: BCL-XL/BAK (Homo sapiens)
Sequence (Q07817 whole entry, species assumed): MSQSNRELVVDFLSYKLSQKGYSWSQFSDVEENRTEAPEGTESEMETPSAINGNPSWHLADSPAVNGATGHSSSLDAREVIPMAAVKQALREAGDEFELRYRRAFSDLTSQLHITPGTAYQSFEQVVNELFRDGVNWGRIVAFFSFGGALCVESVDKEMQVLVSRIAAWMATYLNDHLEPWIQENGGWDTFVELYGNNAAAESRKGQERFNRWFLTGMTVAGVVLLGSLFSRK
Test: Screening on inhibitory activity for BCL-XL/BAK binding (Cisbio HTRF kit)
Readout name: pIC50
Keep in mind that pIC50 stands for -log10 of concentration in molar terms.

Requested read-out: pIC50. Entry: CC1(C)CCC(CN2CCN(c3ccc(C(=O)NS(=O)(=O)c4ccc(NC[C@H]5CN(S(C)(=O)=O)CCO5)c([N+](=O)[O-])c4)c(Oc4cnc5[nH]ccc5c4)c3)CC2)=C(c2ccc(C(F)(F)F)cc2Cl)C1 [Compound 63-1]
6.66

Now the same for CC1(C)CCC(CN2CCN(c3ccc(C(=O)NS(=O)(=O)c4ccc(NCC5CCCOC5)c([N+](=O)[O-])c4)c(Oc4cnc5[nH]ccc5c4)c3)CC2)=C(c2ccc(C(F)(F)F)cc2Cl)C1 (stereo not drawn) [Compound 13-1]
6.41

Now the same for COCC(=O)N1CCOC(CCNc2ccc(S(=O)(=O)NC(=O)c3ccc(N4CCN(CC5=C(c6ccc(C(F)(F)F)cc6Cl)CC(C)(C)CC5)CC4)cc3Oc3cnc4[nH]ccc4c3)cc2[N+](=O)[O-])C1 (stereo not drawn) [Compound 72-1]
6.92

Now the same for CC1(C)CCC(CN2CCN(c3ccc(C(=O)NS(=O)(=O)c4ccc(NC[C@@H]5CCCO5)c([N+](=O)[O-])c4)c(Oc4cnc5[nH]ccc5c4)c3)CC2)=C(c2ccc(C(F)(F)F)cc2Cl)C1 [Compound 37-1]
6.85

Now the same for CC(=O)N1CCOC(CCNc2ccc(S(=O)(=O)NC(=O)c3ccc(N4CCN(CC5=C(c6ccc(C(F)(F)F)cc6Cl)CC(C)(C)CC5)CC4)cc3Oc3cnc4[nH]ccc4c3)cc2[N+](=O)[O-])C1 (stereo not drawn) [Compound 16-1]
6.19

Now the same for CC1(C)CCC(CN2CCN(c3ccc(C(=O)NS(=O)(=O)c4ccc(NCC5CN(S(C)(=O)=O)CCO5)c([N+](=O)[O-])c4)c(Oc4cnc5[nH]ccc5c4)c3)CC2)=C(c2ccc(C(F)(F)F)cc2Cl)C1 (stereo not drawn) [Compound 12-1]
6.95

Now the same for CC1(C)CCC(CN2CCN(c3ccc(C(=O)NS(=O)(=O)c4ccc(NC[C@@H]5COCCO5)c([N+](=O)[O-])c4)c(Oc4cnc5[nH]ccc5c4)c3)CC2)=C(c2ccc(C(F)(F)F)cc2Cl)C1 [Compound 7-1]
6.54

Now the same for CC1(C)CCC(CN2CCN(c3ccc(C(=O)NS(=O)(=O)c4ccc(NCC5CN(C(=O)C(F)(F)F)CCO5)c([N+](=O)[O-])c4)c(Oc4cnc5[nH]ccc5c4)c3)CC2)=C(c2ccc(C(F)(F)F)cc2Cl)C1 (stereo not drawn) [Compound 52-1]
6.76

Now the same for CC(C)C(=O)N1CCO[C@H](CNc2ccc(S(=O)(=O)NC(=O)c3ccc(N4CCN(CC5=C(c6ccc(C(F)(F)F)cc6Cl)CC(C)(C)CC5)CC4)cc3Oc3cnc4[nH]ccc4c3)cc2[N+](=O)[O-])C1 [Compound 66-1]
6.56

Now the same for CC1(C)CCC(CN2CCN(c3ccc(C(=O)NS(=O)(=O)c4ccc(NC[C@H]5CCOC5)c([N+](=O)[O-])c4)c(Oc4cnc5[nH]ccc5c4)c3)CC2)=C(c2ccc(C(F)(F)F)cc2Cl)C1 [Compound 35-1]
6.63

Now the same for COCC(=O)N1CCO[C@H](CNc2ccc(S(=O)(=O)NC(=O)c3ccc(N4CCN(CC5=C(c6ccc(C(F)(F)F)cc6Cl)CC(C)(C)CC5)CC4)cc3Oc3cnc4[nH]ccc4c3)cc2[N+](=O)[O-])C1 [Compound 11-1]
6.85

Now the same for CC1(C)CCC(CN2CCN(c3ccc(C(=O)NS(=O)(=O)c4ccc(NC[C@H]5COCCO5)c([N+](=O)[O-])c4)c(Oc4cnc5[nH]ccc5c4)c3)CC2)=C(c2ccc(C(F)(F)F)cc2Cl)C1 [Compound 8-1]
6.81

Now the same for COC(=O)N1CCOC(CNc2ccc(S(=O)(=O)NC(=O)c3ccc(N4CCN(CC5=C(c6ccc(C(F)(F)F)cc6Cl)CC(C)(C)CC5)CC4)cc3Oc3cnc4[nH]ccc4c3)cc2[N+](=O)[O-])C1 (stereo not drawn) [Compound 75-1]
6.49

Now the same for CCN1CCOCC1CNc1ccc(S(=O)(=O)NC(=O)c2ccc(N3CCN(CC4=C(c5ccc(C(F)(F)F)cc5Cl)CC(C)(C)CC4)CC3)cc2Oc2cnc3[nH]ccc3c2)cc1[N+](=O)[O-] (stereo not drawn) [Compound 24-1]
6.25

Now the same for CC(C)C(=O)N1CCC(CNc2ccc(S(=O)(=O)NC(=O)c3ccc(N4CCN(CC5=C(c6ccc(C(F)(F)F)cc6Cl)CC(C)(C)CC5)CC4)cc3Oc3cnc4[nH]ccc4c3)cc2[N+](=O)[O-])CC1 [Compound 23-1]
6.52

Now the same for CC1(C)CCC(CN2CCN(c3ccc(C(=O)NS(=O)(=O)c4ccc(NC[C@H]5CCCO5)c([N+](=O)[O-])c4)c(Oc4cnc5[nH]ccc5c4)c3)CC2)=C(c2ccc(C(F)(F)F)cc2Cl)C1 [Compound 38-1]
6.73
